target: human JAK3 (Homo sapiens (Human), UniProt P52333); test: JAK3 kinase inhibitory activity, ADP Glo kinase assay; type: biochemical; conditions: recombinant purified human JAK3, ATP 5 uM, Poly(Glu4,Tyr1) peptide, 1 hour 30° C.
Sequence (P52333 whole entry): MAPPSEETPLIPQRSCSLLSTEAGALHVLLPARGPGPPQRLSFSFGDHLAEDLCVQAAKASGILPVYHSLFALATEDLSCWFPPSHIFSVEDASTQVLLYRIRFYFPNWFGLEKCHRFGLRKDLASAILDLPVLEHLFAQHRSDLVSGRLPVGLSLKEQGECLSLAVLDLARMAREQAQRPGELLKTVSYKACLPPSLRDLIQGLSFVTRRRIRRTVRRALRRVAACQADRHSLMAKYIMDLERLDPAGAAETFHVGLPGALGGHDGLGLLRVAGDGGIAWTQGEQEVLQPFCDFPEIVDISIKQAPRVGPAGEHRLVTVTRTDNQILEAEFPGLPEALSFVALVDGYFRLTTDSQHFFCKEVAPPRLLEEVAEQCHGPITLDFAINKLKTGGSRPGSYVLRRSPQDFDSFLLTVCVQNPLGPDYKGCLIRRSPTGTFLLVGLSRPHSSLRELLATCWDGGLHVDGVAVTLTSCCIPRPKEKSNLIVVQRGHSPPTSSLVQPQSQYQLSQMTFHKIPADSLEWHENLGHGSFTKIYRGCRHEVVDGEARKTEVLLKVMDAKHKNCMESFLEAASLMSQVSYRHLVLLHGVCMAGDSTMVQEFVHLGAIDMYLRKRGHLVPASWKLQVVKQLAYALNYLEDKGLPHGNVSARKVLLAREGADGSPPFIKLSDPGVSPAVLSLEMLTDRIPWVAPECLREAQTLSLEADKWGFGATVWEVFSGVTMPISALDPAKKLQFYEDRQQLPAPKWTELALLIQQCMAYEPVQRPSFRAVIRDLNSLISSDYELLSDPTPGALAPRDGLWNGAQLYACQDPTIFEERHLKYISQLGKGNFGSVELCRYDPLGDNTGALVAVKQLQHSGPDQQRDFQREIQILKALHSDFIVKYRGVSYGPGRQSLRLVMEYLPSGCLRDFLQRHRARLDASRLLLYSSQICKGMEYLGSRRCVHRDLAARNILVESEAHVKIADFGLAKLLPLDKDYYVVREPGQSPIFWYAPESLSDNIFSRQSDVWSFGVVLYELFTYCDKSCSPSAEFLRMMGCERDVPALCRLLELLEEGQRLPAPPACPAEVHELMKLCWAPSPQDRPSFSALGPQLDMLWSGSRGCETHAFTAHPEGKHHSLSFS
pIC50: −log10 of the molar value.
Assay Metric: pIC50

{"columns": ["Compound", "Assay Metric", "Result"],
 "data": [
  ["C=CC(=O)N1CC[C@@H](F)[C@@H](Oc2nc(Nc3cnn(CC)c3)nc3[nH]cc(F)c23)C1", "pIC50", 8.70],
  ["C=CC(=O)N1CC[C@@H](F)[C@@H](Oc2nc(Nc3cnn(CC)c3)nc3[nH]ccc23)C1", "pIC50", 9.70],
  ["C=CC(=O)N1CC[C@@H](F)[C@H](Oc2nc(Nc3cnn(C4CC4)c3)nc3[nH]cc(C#N)c23)C1 (racemic)", "pIC50", 9.52],
  ["C=CC(=O)N1CC[C@H](F)[C@H](Oc2nc(Nc3ccc(N4CCOCC4)cc3)nc3[nH]ccc23)C1", "pIC50", 6.69],
  ["C=CC(=O)N1CC[C@@H](F)[C@@H](Oc2nc(Nc3cnn(CC)c3)nc3[nH]cc(Cl)c23)C1", "pIC50", 9.70],
  ["C=CC(=O)N1CC[C@@H](F)[C@@H](Oc2nc(Nc3cc(C)ns3)nc3[nH]cc(C)c23)C1", "pIC50", 9.70],
  ["C=CC(=O)N1CC[C@H](F)[C@H](Oc2nc(Nc3cnn(CC)c3)nc3[nH]ccc23)C1 [Example 28]", "pIC50", 7.81],
  ["C=CC(=O)N1CC[C@H](F)[C@H](Oc2nc(Nc3cnn(CC(F)F)c3)nc3[nH]cc(F)c23)C1 (racemic)", "pIC50", 9.22],
  ["C=CC(=O)N1CC[C@@H](F)[C@H](Oc2nc(Nc3cc(C)ns3)nc3[nH]cc(Cl)c23)C1 (racemic)", "pIC50", 9.52],
  ["C=CC(=O)N1CC[C@@H](F)[C@@H](Oc2nc(Nc3cnn(CCO)c3)nc3[nH]ccc23)C1", "pIC50", 9.52],
  ["C=CC(=O)N1CC[C@@H](F)[C@@H](Oc2nc(Nc3cnn(C4CC4)c3)nc3[nH]cc(C)c23)C1", "pIC50", 9.40],
  ["C=CC(=O)N1CC[C@@H](F)[C@H](Oc2nc(Nc3cnn(CC)c3)nc3[nH]ccc23)C1 [Example 24]", "pIC50", 8.23],
  ["C=CC(=O)N1CC[C@@H](F)[C@H](Oc2nc(Nc3cnn(CC)c3)nc3[nH]ccc23)C1 (racemic) [Example 1]", "pIC50", 9.52],
  ["C=CC(=O)N1CC[C@@H](F)[C@H](Oc2nc(Nc3cnn(CC)c3)nc3[nH]cc(C#N)c23)C1 (racemic)", "pIC50", 9.70],
  ["C=CC(=O)N1CC[C@H](F)[C@@H](Oc2nc(Nc3cnn(CC)c3)nc3[nH]ccc23)C1", "pIC50", 9.70]
]}

----------
target: UniProtKB Q06187; experiment: BTK kinase inhibitory activity, ADP Glo kinase assay
Sequence (Q06187 whole entry): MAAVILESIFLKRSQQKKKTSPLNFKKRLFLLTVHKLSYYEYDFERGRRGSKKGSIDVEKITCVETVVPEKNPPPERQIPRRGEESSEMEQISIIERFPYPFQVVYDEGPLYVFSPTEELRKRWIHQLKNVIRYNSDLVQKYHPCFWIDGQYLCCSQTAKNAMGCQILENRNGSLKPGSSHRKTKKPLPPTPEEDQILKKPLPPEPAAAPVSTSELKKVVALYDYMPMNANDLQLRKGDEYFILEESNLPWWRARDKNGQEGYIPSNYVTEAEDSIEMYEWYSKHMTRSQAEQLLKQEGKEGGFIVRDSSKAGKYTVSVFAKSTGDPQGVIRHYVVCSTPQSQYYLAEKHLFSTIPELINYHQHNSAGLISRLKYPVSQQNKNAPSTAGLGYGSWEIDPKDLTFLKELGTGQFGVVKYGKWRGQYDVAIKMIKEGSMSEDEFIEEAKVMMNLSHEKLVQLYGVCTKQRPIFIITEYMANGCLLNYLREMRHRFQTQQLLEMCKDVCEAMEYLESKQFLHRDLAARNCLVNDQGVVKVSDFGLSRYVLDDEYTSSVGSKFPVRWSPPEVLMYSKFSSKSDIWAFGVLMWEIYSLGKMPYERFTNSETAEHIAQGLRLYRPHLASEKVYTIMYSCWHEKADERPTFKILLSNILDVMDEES
Checkbox rule: IC50 lower than 3 nM = condition met; IC50 not lower than 3 nM = condition not met.

{"columns": ["Molecule", "Subject Of Test", "Class Label"],
 "data": [
  ["C=CC(=O)N1CC[C@@H](F)[C@H](Oc2nc(Nc3cc(C)ns3)nc3[nH]cc(Cl)c23)C1 (racemic) [Example 11]", "UniProtKB Q06187", "condition met"],
  ["C=CC(=O)N1CC[C@H](F)[C@H](Oc2nc(Nc3cnn(CC(F)F)c3)nc3[nH]cc(F)c23)C1 (racemic) [Example 16]", "UniProtKB Q06187", "condition not met"],
  ["C=CC(=O)N1CC[C@@H](F)[C@H](Oc2nc(Nc3cnn(CC)c3)nc3[nH]ccc23)C1 (racemic) [Example 1]", "UniProtKB Q06187", "condition met"],
  ["C=CC(=O)N1CC[C@H](F)[C@H](Oc2nc(Nc3cnn(CC)c3)nc3[nH]ccc23)C1 (racemic) [Example 4]", "UniProtKB Q06187", "condition not met"],
  ["C=CC(=O)N1CC[C@@H](F)[C@H](Oc2nc(Nc3cnn(C4CC4)c3)nc3[nH]cc(Cl)c23)C1 (racemic) [Example 10]", "UniProtKB Q06187", "condition met"],
  ["C=CC(=O)N1CC[C@@H](F)[C@H](Oc2nc(Nc3cnn(CC)c3)nc3[nH]cc(Cl)c23)C1 (racemic) [Example 9]", "UniProtKB Q06187", "condition met"],
  ["C=CC(=O)N1CC[C@@H](F)[C@H](Oc2nc(Nc3cnoc3)nc3[nH]ccc23)C1 (racemic) [Example 23]", "UniProtKB Q06187", "condition not met"]
]}

The values you see were collected from patent US11339167B2.
